Tested on: hLiMTs
protocol_description: Combined HCI (HCS) and cellular ATP 3D assay in hLiMTs
condition_notes: hLiMTs; HCS endpoints; cut-off <25x Avg Cmax
test_readout: hLiMTs <25x Avg Cmax HCS

compound: O=C1CN(/N=C/c2ccc([N+](=O)[O-])o2)C(=O)N1 [nitrofurantoin, reference compound]
recorded_value: +ve

compound: Cc1c(C)c2c(c(C)c1O)CCC(C)(COc1ccc(CC3SC(=O)NC3=O)cc1)O2 (stereo not drawn) [troglitazone, reference compound]
recorded_value: +ve

compound: Cc1c(-c2ccccc2)oc2c(C(=O)OCCN3CCCCC3)cccc2c1=O [flavoxate]
recorded_value: -ve

compound: CCc1ccc(CCOc2ccc(CC3SC(=O)NC3=O)cc2)nc1 (stereo not drawn) [pioglitazone, reference compound]
recorded_value: +ve

compound: CNC1(C)C2CCC(C2)C1(C)C (stereo not drawn)
recorded_value: -ve

Q: What does the record list as hLiMTs <25x Avg Cmax HCS for "Cc1cc2c(cc1CC(=O)c1sccc1S(=O)(=O)Nc1onc(C)c1Cl)OCO2" ?
Ans: +ve

Q: hLiMTs <25x Avg Cmax HCS lookup needed for C[N+](C)(C)CC(=O)O [betaine, reference compound] , thanks.
Ans: -ve

Q: Can you look up the measured hLiMTs <25x Avg Cmax HCS of CCN(CC)CC#CCOC(=O)C(O)(c1ccccc1)C1CCCCC1 (stereo not drawn) for me?
Ans: -ve

Q: Return reported hLiMTs <25x Avg Cmax HCS; argument: NNC(=O)c1ccncc1 [isoniazid, reference compound]
Ans: -ve

Data provenance is paper PMC7395068.
